Data provenance is patent US20110257890A1.

assay system: T1, recombinant HLA-A*2402 molecules lacking the transmembrane domain (human, biotinylated at the carboxy terminus of the heavy chain)
T1 construct: Loaded with the peptide in question; used on streptavidin beads (aAPC) and as PE- or APC-coupled multimers
experimental details: peptide-loaded recombinant HLA-A*2402 on beads for T-cell priming, read out with A*2402 multimers
reported metric: binding result

# binder, endpoint result
records = [
    ("KYNDTFWKEF [HSP90B1-001]", "binds"),
    ("RYLWATVTI [ASPM-001]", "binds"),
    ("VFDTAIAHLF [SIAH2-001]", "binds"),
]
